Test system: PRMT1 (protein arginine N-methyltransferase 1)
Experiment: small molecules binding arginine methyltransferase PRMT1 – biochemical, small-molecule microarray, 635 nm fluorescence, primary screen (AID 1088);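 further: binding of Prmt1 protein to compounds spotted on small-molecule microarray slides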
Details: higher = more signal
experimental endpoint: composite z-score

[[record]]
molecule = "CCCC[C@@H]1C[C@H]1[C@@H](NC(=O)c1cccnc1)c1ccc(Cl)cc1"
assayed_system = "PRMT1 (protein arginine N-methyltransferase 1)"
test_result = -2.81

[[record]]
molecule = "C[N+](C)(C)CCCC[C@@H]1NC(=O)[C@@H]2C[C@H](C(=O)NCCCCCCNC(=O)CS)[C@H](c3ccc(O)cc3)N2C1=O"
assayed_system = "PRMT1 (protein arginine N-methyltransferase 1)"
test_result = 0.567

[[record]]
molecule = "O=C1NC(=O)C2C1C=CC(C(O)c1ccc(I)cc1)N2Nc1ccc(Cl)cc1Cl (stereo not given)"
assayed_system = "PRMT1 (protein arginine N-methyltransferase 1)"
test_result = 0.265

[[record]]
molecule = "O=C1NC(=O)C2C1C=CC(C(O)c1ccc(I)cc1)N2Nc1ccccn1 (stereo not given)"
assayed_system = "PRMT1 (protein arginine N-methyltransferase 1)"
test_result = 0.321

[[record]]
molecule = "CC(C)CN1C(=O)[C@@]2(c3ccc([N+](=O)[O-])cc3)CC(=O)N(C3CCCCC3)[C@@H]2c2ccc(CO)cc21"
assayed_system = "PRMT1 (protein arginine N-methyltransferase 1)"
test_result = -1.13

[[record]]
molecule = "C=CCC(OC(C)=O)[C@@H]1[C@@H](N(Cc2ccc(-c3ccccc3)cc2)C(=O)Cc2ccc(F)cc2)c2cc(OCCCO)ccc2N1C(=O)c1ccc2ccccc2c1 (stereo not given in full)"
assayed_system = "PRMT1 (protein arginine N-methyltransferase 1)"
test_result = 0.688

[[record]]
molecule = "COCCOC(=O)N1C(=O)[C@@]2(c3ccccc31)[C@H](C(=O)N1CCCCCCC1)[C@H]1C(=O)O[C@H](c3ccccc3)[C@H](c3ccccc3)N1[C@@H]2c1ccc(OCCO)cc1"
assayed_system = "PRMT1 (protein arginine N-methyltransferase 1)"
test_result = 1.54

[[record]]
molecule = "CCCCCCCCCCC(O)C1C=CC2C(=O)NC(=O)C2N1Nc1ccc(Cl)cc1Cl (stereo not given)"
assayed_system = "PRMT1 (protein arginine N-methyltransferase 1)"
test_result = 0.355

[[record]]
molecule = "O=C1C2C=CC(C(O)c3ccc(F)cc3)N(Nc3ccc([N+](=O)[O-])cc3)C2C(=O)N1c1ccccc1 (stereo not given)"
assayed_system = "PRMT1 (protein arginine N-methyltransferase 1)"
test_result = 1.35

[[record]]
molecule = "COc1ccc(CCNC(=O)[C@@]2(C)c3ccccc3C(=O)N(c3ccc(C)cn3)[C@H]2c2ccc(CO)cc2)cc1"
assayed_system = "PRMT1 (protein arginine N-methyltransferase 1)"
test_result = -0.0351

[[record]]
molecule = "CN(C)CCCCCCNC(=O)[C@@H]1C[C@@H]2C(=O)N3CCC[C@H]3C(=O)N2[C@@H]1c1ccc(O)cc1"
assayed_system = "PRMT1 (protein arginine N-methyltransferase 1)"
test_result = 1.53

[[record]]
molecule = "C=C(/C(=C/C[C@H](OC(=O)c1ccncc1)c1ccc(OCCO)cc1)c1cc(C(=O)OC)ccc1OC)C(C)C"
assayed_system = "PRMT1 (protein arginine N-methyltransferase 1)"
test_result = 1.03

[[record]]
molecule = "COc1ccc(C#Cc2ccc3c(c2)[C@]2(C(=O)N3)[C@H](c3ccc(O)cc3)N3[C@H](c4ccccc4)[C@H](c4ccccc4)OC(=O)[C@H]3[C@@H]2C(=O)N2CCc3cc(OC)c(OC)cc3C2)cc1"
assayed_system = "PRMT1 (protein arginine N-methyltransferase 1)"
test_result = 1.54

[[record]]
molecule = "O=C(NC1CC1)[C@@H]1c2ccccc2C(=O)N(Cc2cc(F)cc(C(F)(F)F)c2)[C@H]1c1ccc(CO)cc1"
assayed_system = "PRMT1 (protein arginine N-methyltransferase 1)"
test_result = 1.35

[[record]]
molecule = "COc1ccccc1CN1C(=O)c2ccccc2[C@@H](C(=O)NCc2ccccc2)[C@@H]1c1ccc(CO)cc1"
assayed_system = "PRMT1 (protein arginine N-methyltransferase 1)"
test_result = 0.713

[[record]]
molecule = "[N-]=[N+]=NCc1ccccc1[C@@H]1OC(c2ccc(OCCCO)cc2)=N[C@]1(CCS(=O)(=O)c1ccccc1)C(=O)N1CCCCC1"
assayed_system = "PRMT1 (protein arginine N-methyltransferase 1)"
test_result = 1.56

[[record]]
molecule = "CN1C(=O)C2C=CC(C(O)C=Cc3ccc([N+](=O)[O-])cc3)N(Nc3ccccc3)C2C1=O (stereo not given)"
assayed_system = "PRMT1 (protein arginine N-methyltransferase 1)"
test_result = 1.51

[[record]]
molecule = "COc1ccc(C(=O)Nc2cccc(CN3C(=O)[C@]4(O[C@H](CCn5cc(CCO)nn5)[C@@H]([Si](C)(C)c5ccc(OC)cc5)[C@@H]4C)c4ccccc43)c2)cc1"
assayed_system = "PRMT1 (protein arginine N-methyltransferase 1)"
test_result = 1.06

[[record]]
molecule = "OCC1C=C(/C=C/c2ccccc2)CN1Cc1ccccc1Br (stereo not given)"
assayed_system = "PRMT1 (protein arginine N-methyltransferase 1)"
test_result = 0.94

[[record]]
molecule = "Cc1ccc(S[C@]2(C(=O)NCC(C)C)CC(=O)N(Cc3cc(C(F)(F)F)cc(C(F)(F)F)c3)[C@@H]2c2ccc(CO)cc2)cc1"
assayed_system = "PRMT1 (protein arginine N-methyltransferase 1)"
test_result = 0.407

[[record]]
molecule = "CN(C)CCCCCCNC(=O)[C@@H]1C[C@@H]2C(=O)N[C@@H](CCCC[N+](C)(C)C)C(=O)N2[C@@H]1c1ccc(O)cc1"
assayed_system = "PRMT1 (protein arginine N-methyltransferase 1)"
test_result = 0.821

[[record]]
molecule = "COC(=O)[C@@]1(CCC(=O)OC(C)(C)C)N=C(c2ccc(OCCCO)cc2)O[C@H]1c1ccccc1"
assayed_system = "PRMT1 (protein arginine N-methyltransferase 1)"
test_result = 0.899

[[record]]
molecule = "COCC(=C=CC[C@H](O)c1cccc(OCCO)c1)CCO"
assayed_system = "PRMT1 (protein arginine N-methyltransferase 1)"
test_result = 1.47

[[record]]
molecule = "[N-]=[N+]=NCc1ccccc1[C@@H]1OC(c2ccc(OCCCO)cc2)=N[C@]1(CCS(=O)(=O)c1ccccc1)C(=O)N1CCOCC1"
assayed_system = "PRMT1 (protein arginine N-methyltransferase 1)"
test_result = 1.54

[[record]]
molecule = "COc1cc(CO)cc(I)c1O[C@H]1C=C(C(=O)NCCO)C[C@@H](NC[C@@H]2CCCO2)[C@@H]1O"
assayed_system = "PRMT1 (protein arginine N-methyltransferase 1)"
test_result = 1.35

[[record]]
molecule = "C=CCN1C(=O)[C@]2(Cc3ccccc3)N=C(c3ccc(OCCCO)cc3)O[C@@H]2c2ccccc21"
assayed_system = "PRMT1 (protein arginine N-methyltransferase 1)"
test_result = 1.53

[[record]]
molecule = "CC(C)=CCCC(C)=CC(O)C1C=CC2C(=O)N(c3ccccc3)C(=O)C2N1Nc1ccc(C(C)C)cc1 (stereo not given)"
assayed_system = "PRMT1 (protein arginine N-methyltransferase 1)"
test_result = 0.629

[[record]]
molecule = "CCCC=C(CCC)[C@@H](NC(=O)OCC(C)C)c1ccccc1"
assayed_system = "PRMT1 (protein arginine N-methyltransferase 1)"
test_result = 0.934

[[record]]
molecule = "COc1ccc([Si](C)(C)[C@H]2[C@H](CC(=O)N3CCC[C@H]3CO)O[C@@]3(C(=O)N(Cc4cccc(N5CCOC5=O)c4)c4ccccc43)[C@@H]2C)cc1"
assayed_system = "PRMT1 (protein arginine N-methyltransferase 1)"
test_result = 1.55

[[record]]
molecule = "COCCOC(=O)N1C(=O)[C@@]2(c3cc(C#CC4(O)CCCCCC4)ccc31)[C@H](c1ccccc1OCCO)N1[C@H](c3ccccc3)[C@H](c3ccccc3)OC(=O)[C@H]1[C@@H]2C(=O)N1CCc2cc(OC)c(OC)cc2C1"
assayed_system = "PRMT1 (protein arginine N-methyltransferase 1)"
test_result = 1.55

